Entries and their Population Normal (%) values follow.
Test system: Fibroblast
Test: Multiplex assay against human fibroblast
Format: toxicity, cell-based
Conditions: 12 h, 10 µM, compound concentration 10 uM, replicate 1
observed.property: Population Normal (%)

INSERT INTO assay_data (compound, reported) VALUES
  ('Cc1ccc(C)c(Oc2ccncc2C(=O)N2CCN(C3CC3)c3ccccc32)c1', 89),
  ('CCCSc1nc(N[C@@H]2C[C@H]2c2ccc(F)c(F)c2)c2nnn([C@@H]3C[C@H](OCCO)[C@@H](O)[C@H]3O)c2n1 [TICAGRELOR]', 87),
  ('COC(=O)C1=C(C)NC(C)=C(C(=O)OCCCN2CCC(c3ccccc3)(c3ccccc3)CC2)[C@H]1c1cccc([N+](=O)[O-])c1 [NIGULDIPINE]', 83),
  ('O=C(c1cc2c(cc1F)OC(c1ccc(F)cc1)(c1ccc(Cl)cc1Cl)O2)N1CCOCC1 (stereo not drawn)', 87),
  ('CC(C)NC(=O)N1CC[C@H](NC2=Nc3cc(F)ccc3N(CC(F)F)c3ccc(Cl)cc32)C1', 86),
  ('CC(C)CC(=O)Nc1[nH]nc2c1CN(C(=O)C1CCN(C)CC1)C2(C)C [PHA-793887]', 87),
  ('Cc1ccc2c(c1)c1c(n2CCc2ccc(C)nc2)CCN(C)C1 [LATREPIRDINE]', 84),
  ('CCc1nn(CCCN2CCN(c3cccc(Cl)c3)CC2)c(=O)n1CCOc1ccccc1.Cl [NEFAZODONE HYDROCHLORIDE]', 89);

###

Tested on: HEK-293T
Assay: Multiplex assay against HEK293T
Format: toxicity, cell-based
Conditions: human, 12 h, 10 µM, compound concentration 10 uM, replicate 2
Labelling field: enter fulfilled if recorded Population Fragmented Nuclei (%) is less than 7%. Enter not fulfilled if it equals or exceeds that cut-off.

INSERT INTO measurements (molecule, label_value) VALUES
  ('CN1CCN(Cc2ccc(Nc3ncc(Cl)c(Nc4ccccc4S(=O)(=O)N(C)C)n3)cc2)CC1 [DUBERMATINIB]', 'not fulfilled'),
  ('CCc1nn(CCCN2CCN(c3cccc(Cl)c3)CC2)c(=O)n1CCOc1ccccc1.Cl [NEFAZODONE HYDROCHLORIDE]', 'fulfilled'),
  ('CC(C)(C)NC[C@H](O)COc1nsnc1N1CCOCC1 [TIMOLOL]', 'fulfilled'),
  ('Cc1ccc2c(c1)c1c(n2CCc2ccc(C)nc2)CCN(C)C1 [LATREPIRDINE]', 'fulfilled'),
  ('CC1=C(C(=O)Nc2cc3cn[nH]c3cc2F)C(c2ccc(C(F)(F)F)cc2)CC(=O)N1 (stereo unspecified)', 'not fulfilled'),
  ('CCc1ccc(OCc2ccccc2C(=O)Nc2ccc3nc(C)cc(N)c3c2)cc1.Cl', 'not fulfilled'),
  ('COc1ccc(-c2ccc3ncc4c(c3c2)n(-c2ccc(N3CCNCC3)c(C(F)(F)F)c2)c(=O)n4C)cn1.O=C(O)/C=C\C(=O)O [BGT-226]', 'not fulfilled'),
  ('O=C(c1cc2c(cc1F)OC(c1ccc(F)cc1)(c1ccc(Cl)cc1Cl)O2)N1CCOCC1 (stereo unspecified)', 'not fulfilled'),
  ('COC(=O)C1=C(C)NC(C)=C(C(=O)OCCCN2CCC(c3ccccc3)(c3ccccc3)CC2)[C@H]1c1cccc([N+](=O)[O-])c1 [NIGULDIPINE]', 'fulfilled'),
  ('Cl.O=C(O)c1cc(-c2ccc(C3CCNCC3)cc2)c2ccc(-c3ccc(C(F)(F)F)cc3)cc2c1', 'not fulfilled'),
  ('CC(C)NC(=O)N1CC[C@H](NC2=Nc3cc(F)ccc3N(CC(F)F)c3ccc(Cl)cc32)C1', 'fulfilled'),
  ('CNC(=O)Nc1ccc2c(c1)[C@@]1(CC2)OC(=O)N(CC(=O)N(Cc2ccc(F)cc2)[C@@H](C)C(F)(F)F)C1=O [A-486]', 'not fulfilled');

###

Tested on: HEK-293T
Assay: Multiplex assay against HEK293T
Assay type: toxicity, cell-based
Conditions: human, 24 h, 1 µM, compound concentration 1 uM, replicate 1
Entries and their Population Mitochondria Different-Phenotype (%) values follow.
observed.property: Population Mitochondria Different-Phenotype (%)

INSERT INTO measurements (compound, unit_symbol, reported) VALUES
  ('CC(C)(C)NC[C@H](O)COc1nsnc1N1CCOCC1 [TIMOLOL]', '%', 58),
  ('Cc1nc(N2CC[C@H](O)C2)ncc1-c1cc(C(F)(F)F)cc2[nH]ncc12', '%', 4),
  ('Cl.O=C(O)c1cc(-c2ccc(C3CCNCC3)cc2)c2ccc(-c3ccc(C(F)(F)F)cc3)cc2c1', '%', 59),
  ('Cc1cccc(CN2CCN(C(c3ccccc3)c3ccc(Cl)cc3)CC2)c1.Cl.Cl (stereo unspecified)', '%', 73),
  ('CCCSc1nc(N[C@@H]2C[C@H]2c2ccc(F)c(F)c2)c2nnn([C@@H]3C[C@H](OCCO)[C@@H](O)[C@H]3O)c2n1 [TICAGRELOR]', '%', 75),
  ('COc1cc(Nc2nccc(-c3cnn4nc(OC)ccc34)n2)cc(C(F)(F)F)c1', '%', 76),
  ('COC(=O)C1=C(C)NC(C)=C(C(=O)OCCCN2CCC(c3ccccc3)(c3ccccc3)CC2)[C@H]1c1cccc([N+](=O)[O-])c1 [NIGULDIPINE]', '%', 99),
  ('C=CC(=O)Nc1ccc2[nH]c(=O)n(C3CCN(Cc4ccc(-c5nc6cc[nH]c(=O)c6cc5-c5ccccc5)cc4)CC3)c2c1 [Borussertib]', '%', 3),
  ('CN1CCN(Cc2ccc(Nc3ncc(Cl)c(Nc4ccccc4S(=O)(=O)N(C)C)n3)cc2)CC1 [DUBERMATINIB]', '%', 59),
  ('CCc1ccc(OCc2ccccc2C(=O)Nc2ccc3nc(C)cc(N)c3c2)cc1.Cl', '%', 90),
  ('C[C@]12CC[C@@H]3c4ccc(O)cc4CC[C@H]3[C@@H]1CC[C@@H]2O [ESTRADIOL]', '%', 45),
  ('CC(C)c1noc(N2CCC(COc3ccc(-c4ccc(S(C)(=O)=O)cc4)nc3)CC2)n1 [GSK-1292263]', '%', 57),
  ('COc1ccc(-c2ccc3ncc4c(c3c2)n(-c2ccc(N3CCNCC3)c(C(F)(F)F)c2)c(=O)n4C)cn1.O=C(O)/C=C\C(=O)O [BGT-226]', '%', 75),
  ('CNC(=O)Nc1ccc(-c2nc(N3CC4CCC(C3)O4)c3cnn(C4CCC5(CC4)OCCO5)c3n2)cc1', '%', 66),
  ('O=C(c1cc2c(cc1F)OC(c1ccc(F)cc1)(c1ccc(Cl)cc1Cl)O2)N1CCOCC1 (stereo unspecified)', '%', 79),
  ('Cc1c[nH]c2nccc(Oc3c(F)cc(Nc4cc(Cl)nc(N)n4)cc3F)c12 [BAY-549]', '%', 47);

###

Test system: HEK-293T
Experiment: Multiplex assay against HEK293T
Type: toxicity, cell-based
Conditions: human, 12 h, 1 µM, compound concentration 1 uM, replicate 2
Entries and their Population Hoechst High Intensity Objects (%) values follow.
observed.property: Population Hoechst High Intensity Objects (%)

INSERT INTO results (molecule, study_target, unit_symbol, reported) VALUES
  ('COc1ccc(-c2ccc3ncc4c(c3c2)n(-c2ccc(N3CCNCC3)c(C(F)(F)F)c2)c(=O)n4C)cn1.O=C(O)/C=C\C(=O)O [BGT-226]', 'HEK-293T', '%', 10),
  ('CCc1ccc(OCc2ccccc2C(=O)Nc2ccc3nc(C)cc(N)c3c2)cc1.Cl', 'HEK-293T', '%', 14),
  ('CCc1nn(CCCN2CCN(c3cccc(Cl)c3)CC2)c(=O)n1CCOc1ccccc1.Cl [NEFAZODONE HYDROCHLORIDE]', 'HEK-293T', '%', 3),
  ('COc1ccccc1CN[C@H]1C2CCN(CC2)[C@H]1C(c1ccccc1)c1ccccc1 [CP-96345]', 'HEK-293T', '%', 3);

###

System: Fibroblast
Test: Multiplex assay against human fibroblast
Type: toxicity, cell-based
Details: 12 h, 1 µM, compound concentration 1 uM, replicate 2
observed.property: Population Pyknosed Nuclei (%)

INSERT INTO results (molecule, observed_property, reported) VALUES
  ('C=CC(=O)Nc1cccc(Sc2nc(Nc3ccc(N4CCN(C)CC4)cc3)ncc2Cl)c1', 'Population Pyknosed Nuclei (%)', 46),
  ('C[C@]12CC[C@@H]3c4ccc(O)cc4CC[C@H]3[C@@H]1CC[C@@H]2O [ESTRADIOL]', 'Population Pyknosed Nuclei (%)', 5),
  ('CCOC(=O)Nc1cc(-c2ccc(C)c(NS(C)(=O)=O)c2)nn2c(C)nnc12', 'Population Pyknosed Nuclei (%)', 9),
  ('Cc1nc(N2CC[C@H](O)C2)ncc1-c1cc(C(F)(F)F)cc2[nH]ncc12', 'Population Pyknosed Nuclei (%)', 23),
  ('O=c1[nH]c2ccccc2n1C1CCN(Cc2ccc(-c3[nH]c4cc5ncnc5cc4nc3-c3ccccc3)cc2)CC1', 'Population Pyknosed Nuclei (%)', 8),
  ('C=CC(=O)Nc1ccc2[nH]c(=O)n(C3CCN(Cc4ccc(-c5nc6cc[nH]c(=O)c6cc5-c5ccccc5)cc4)CC3)c2c1 [Borussertib]', 'Population Pyknosed Nuclei (%)', 5),
  ('CC(C)NC(=O)N1CC[C@H](NC2=Nc3cc(F)ccc3N(CC(F)F)c3ccc(Cl)cc32)C1', 'Population Pyknosed Nuclei (%)', 5),
  ('CN1CCN(Cc2cc(NC(=O)c3ccc4c(c3)CN(c3ccccc3)CC4)cc(C(F)(F)F)c2)CC1', 'Population Pyknosed Nuclei (%)', 6),
  ('CC(C)CC(=O)Nc1[nH]nc2c1CN(C(=O)C1CCN(C)CC1)C2(C)C [PHA-793887]', 'Population Pyknosed Nuclei (%)', 20),
  ('CC(C)c1noc(N2CCC(COc3ccc(-c4ccc(S(C)(=O)=O)cc4)nc3)CC2)n1 [GSK-1292263]', 'Population Pyknosed Nuclei (%)', 2),
  ('Cc1cccc(CN2CCN(C(c3ccccc3)c3ccc(Cl)cc3)CC2)c1.Cl.Cl (configuration not stated)', 'Population Pyknosed Nuclei (%)', 3),
  ('Cc1ccc2c(c1)c1c(n2CCc2ccc(C)nc2)CCN(C)C1 [LATREPIRDINE]', 'Population Pyknosed Nuclei (%)', 4),
  ('COc1ccccc1CN[C@H]1C2CCN(CC2)[C@H]1C(c1ccccc1)c1ccccc1 [CP-96345]', 'Population Pyknosed Nuclei (%)', 3),
  ('COC(=O)C1=C(C)NC(C)=C(C(=O)OCCCN2CCC(c3ccccc3)(c3ccccc3)CC2)[C@H]1c1cccc([N+](=O)[O-])c1 [NIGULDIPINE]', 'Population Pyknosed Nuclei (%)', 15),
  ('C=CC(=O)Nc1cccc(Oc2nc(Nc3ccc(N4CCN(C)CC4)cc3OC)ncc2Cl)c1', 'Population Pyknosed Nuclei (%)', 7),
  ('COc1cc2ncn(-c3cc(OCc4ccccc4C(F)(F)F)c(C(N)=O)s3)c2cc1OC [GW843682X]', 'Population Pyknosed Nuclei (%)', 9),
  ('O=c1cc(N2CCOCC2)oc2c(-c3cccc4c3sc3ccccc34)cccc12', 'Population Pyknosed Nuclei (%)', 6);
